Where do the numbers come from? From paper PMC9482650.

Overview of reported pKd across a group of binders:
Molecular target: NOS1, P29475
Sequence (P29475 9-101): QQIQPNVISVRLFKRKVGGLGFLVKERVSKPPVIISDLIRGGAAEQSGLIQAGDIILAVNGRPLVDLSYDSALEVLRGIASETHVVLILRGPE
Experiment: holdup assay
Set-up: key: below the threshold = too weak to quantify, mostly under pKd 3.1 to 4
Settings: plain residues with an end cap or a label only (N-terminal biotin on a linker: ado-ado)
Answer with a number only.

INSERT INTO assay_data (binder, measured_property, endpoint_value) VALUES
  ('EFKQTSSFLV [JAM1, Q9Y624]', 'pKd', 3.97);

Would you mind telling me what pKd value was observed for DSEEELPTRL [GRK6, P43250] ?
3.61
